Recorded Unphosphorylated selection Mean fraction by entry
target: Scribble PDZ1 (Homo sapiens, UniProt Q14160); construct: human Scribble PDZ1 aa 719–829 in; made in house; host or cells: E. coli BL21 Gold (DE3); assay: Pre-phosphorylation ProP-PD: wild-type library treated with RPS6KA1 or not, selection with NGS; type: binding; settings: Without Kinase; mean of the two selections; bait Scribble PDZ1
Sequence (Q14160 719-829): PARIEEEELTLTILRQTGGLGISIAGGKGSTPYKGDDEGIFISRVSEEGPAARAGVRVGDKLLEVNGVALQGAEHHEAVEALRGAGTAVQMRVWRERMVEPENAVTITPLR
// print number alone

Illustrative cases are given below, each with its answer.
construct.sequence	Unphosphorylated selection Mean fraction
PLHSLETSL [ATP2B1]	1.381e-5
LPKIKETTV [FRMPD4]	0.0007483
PIHSLETSL [ATP2B2]	0.003212
VWLRKETRV [CYSLTR2]	0
SRDRKETSI [RALBP1]	1.381e-5
KSEPFLTWL [WWTR1]	1.381e-5

# context switch: different sequence, same Unphosphorylated selection Mean fraction
# input Report its Unphosphorylated selection Mean fraction with Scribble PDZ1 (Homo sapiens, UniProt Q14160) as the test system: SARLWETSI [ADAM22]
# output 0.03077

----------
Test system: Scribble PDZ3
Assay: Phosphomimetic ProP-PD selection with NGS
Type: binding, human
Conditions: mean of selections 1-3; bait Scribble PDZ3; phosphomimetic peptide
Method: Phage selections were carried out for four rounds following a protocol by Huang and Sidhu (Huang & Sidhu, 2011) with minor modifications. Non‐specific binding phage was removed by pre‐selections against immobilized GST throughout the selection. […] The naïve library and the enriched phage pools of the third day of selection were amplified and barcoded by PCR and analyzed by NGS as described elsewhere (McLaughlin & Sidhu, 2013; Ivarsson et al, 2014). […]
Recorded Mean fraction #NGS counts mimetic peptide / total count selection by entry
// print number alone

construct.sequence	assayed.system	reading
VRKLPETEL	Scribble PDZ3	0.01059

# input For KYVDAETEL , write its Mean fraction #NGS counts mimetic peptide / total count selection.
# output 0.0004194

# input For NSTNMESEL , write its Mean fraction #NGS counts mimetic peptide / total count selection.
# output 0.001938

# input For VVHTPETEV , write its Mean fraction #NGS counts mimetic peptide / total count selection.
# output 1.817e-5

----------
system: DLG1 PDZ3; test: Phosphomimetic ProP-PD selection with NGS; format: binding, human; conditions: mean of selections 1-3; bait DLG1 PDZ3
measured.parameter: Mean fraction #NGS counts wt peptide / total counts selection

Illustrative cases are given below, each with its answer.
construct.sequence	reading
VWLRKETRV	0.8949
HSIKQSTAV	0
RATSPGSGL	0.001731
PANRRTTPV	0
TNSSSYSHI	0.001855

# input For RQTSYQGVL , write its Mean fraction #NGS counts wt peptide / total counts selection.
# output 0.008629

# input For YSPSMTMSV , write its Mean fraction #NGS counts wt peptide / total counts selection.
# output 7.133e-5

----------
tested on: DLG1 PDZ1; assay: Phosphomimetic ProP-PD selection with NGS; type: binding, human; conditions: mean of selections 1-3; bait DLG1 PDZ1; phosphomimetic peptide
measured.parameter: Mean fraction #NGS counts mimetic peptide / total count selection
// print number alone

construct.sequence	reading
EEREVTTYL	3.309e-5

# input For ASEPGGTVV , write its Mean fraction #NGS counts mimetic peptide / total count selection.
# output 0

# input For ERLRVEEDV , write its Mean fraction #NGS counts mimetic peptide / total count selection.
# output 0

# input For RSRSISEDV , write its Mean fraction #NGS counts mimetic peptide / total count selection.
# output 0
